Source of measurements: patent US20100035871A1

- SYSTEM: human 5-HT2C receptor (Homo sapiens, UniProt P28335)
- Construct: expressed in transfected cells; host or cells: CHO (Chinese Hamster Ovary) cells; membrane preparation
- Sequence (P28335 33-458): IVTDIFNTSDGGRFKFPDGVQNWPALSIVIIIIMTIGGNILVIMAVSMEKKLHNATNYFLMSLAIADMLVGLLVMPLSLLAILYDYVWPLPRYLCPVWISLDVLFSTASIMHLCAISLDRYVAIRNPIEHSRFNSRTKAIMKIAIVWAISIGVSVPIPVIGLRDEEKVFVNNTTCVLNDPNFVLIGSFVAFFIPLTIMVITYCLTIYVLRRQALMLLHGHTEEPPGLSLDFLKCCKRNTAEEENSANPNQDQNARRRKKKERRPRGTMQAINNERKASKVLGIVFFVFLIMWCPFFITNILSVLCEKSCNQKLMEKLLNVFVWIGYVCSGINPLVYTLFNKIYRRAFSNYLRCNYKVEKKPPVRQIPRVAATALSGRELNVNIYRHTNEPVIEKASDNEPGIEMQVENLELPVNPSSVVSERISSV
- ASSAY_REMARKS: 5-HT2C receptor-stimulated calcium mobilization (FLIPR) in CHO cells
- Assay type: cell-based
- ASSAY_SETUP: CHO; read-out: 5-HT2C Function EMax (%)
PARAMETER: Emax (%)
Numbers only; they are read as %.

NC[C@@H]1CNc2cccc(-c3ccccc3C(F)(F)F)c2O1; 62
NCC1COc2cc(F)cc(-c3ccccc3C(F)(F)F)c2N1 (racemic); 54
Cc1cc(Cl)ccc1-c1cccc2c1OC(CN)CN2C (racemic); 70
COc1ccc(-c2cc(F)cc3c2NC(CN)CO3)c(Cl)c1 (racemic); 59

Let us examine a further case.
Return reported Emax; argument: COc1ccccc1-c1cccc2c1OC(CN)CN2C (racemic)
60

* * *

// values below are reported melting point
Counter-ions that a name gives are not always drawn.

See these solved cases before continuing.
CN1CC(CN)Oc2c(-c3ccccc3)cccc21 (racemic) (as salt: hydrochloride) [Example 9]; 80 °C (dec.)
NCC1CNc2cccc(-c3ccc(Cl)cc3Cl)c2O1 (racemic) (as salt: hydrochloride) [Example 15]; 158 to 161 °C
Cc1cc(Cl)ccc1-c1cccc2c1OC(CN)CN2 (racemic) (as salt: hydrochloride) [Example 20]; 192 to 194 °C
NCC1COc2cc(F)cc(-c3ccccc3Cl)c2N1 (racemic) (as salt: hydrochloride) [Example 57]; 86 °C (dec.)
COc1ccccc1-c1cc(F)cc2c1NC(CN)CO2 (racemic) (as salt: hydrochloride) [Example 64]; 84 °C (dec.)

Return reported melting point; argument: CN1CC(CN)Oc2c(-c3ccc(Cl)cc3Cl)cccc21 (racemic) (as salt: hydrochloride) [Example 3]
90 °C (dec.)

Return reported melting point; argument: COc1ccc(-c2cc(F)cc3c2NC(CN)CO3)c(C)c1 (racemic) (as salt: hydrochloride) [Example 56]
82 °C (dec.)

Return reported melting point; argument: COc1ccccc1-c1cccc2c1OC(CN)CN2C (racemic) (as salt: hydrochloride) [Example 1]
90 °C (dec.)

Return reported melting point; argument: CCCN1CC(CN)Oc2c(-c3ccccc3Cl)cccc21 (racemic) (as salt: hydrochloride) [Example 21]
83 to 85 °C

Return reported melting point; argument: CN1CC(CN)Oc2c(-c3ccccc3Cl)cccc21 (racemic) (as salt: hydrochloride) [Example 11]
80 °C (dec.)

Return reported melting point; argument: NCC1COc2cc(F)cc(-c3ccccc3F)c2N1 (racemic) (as salt: hydrochloride) [Example 62]
77 °C (dec.)

Return reported melting point; argument: Cc1cc(Cl)ccc1-c1cccc2c1O[C@H](CN)CN2 (as salt: hydrochloride) [Example 42]
195 °C (dec.)

Return reported melting point; argument: NC[C@@H]1CNc2cccc(-c3ccccc3F)c2O1 (as salt: hydrochloride) [Example 43]
186 °C (dec.)

Return reported melting point; argument: NC[C@H]1CNc2cccc(-c3ccccc3Cl)c2O1 (as salt: hydrochloride) [Example 39]
145 °C (dec.)

Return reported melting point; argument: COc1ccc(-c2cc(Cl)cc3c2N(C)C(CN)CO3)c(C)c1 (racemic) (as salt: hydrochloride) [Example 28]
106 °C (dec.)

* * *

- SYSTEM: human 5-HT2C receptor (Homo sapiens)
- Construct: membrane preparation
- ASSAY_REMARKS: 5-HT2C receptor-stimulated calcium mobilization (FLIPR) in CHO cells
- ASSAY_SETUP: calcium mobilization, CHO cells; read-out: 5-HT2C Function EC50
// values below are reported EC50

NCC1COc2cc(Cl)cc(-c3ccccc3Cl)c2N1 (racemic); 845 nM
NC[C@H]1CNc2cccc(-c3ccccc3C(F)(F)F)c2O1; 2.74 nM
Cc1ccc(-c2cc(Cl)cc3c2NC(CN)CO3)c(C(F)(F)F)c1 (racemic); 876 nM
Cc1cc(Cl)ccc1-c1cccc2c1OC(CN)CN2C (racemic); 280 nM

Return reported EC50; argument: COc1ccc(-c2cccc3c2O[C@@H](CN)CN3)c(Cl)c1
0.17 nM

* * *

- SYSTEM: human 5-HT2C receptor (Homo sapiens, UniProt P28335)
- Construct: expressed in transfected cells; host or cells: CHO (Chinese Hamster Ovary) cells; membrane preparation
- ASSAY_REMARKS: 5-HT2C receptor-stimulated calcium mobilization (FLIPR) in CHO cells
- Format: cell-based
- ASSAY_SETUP: CHO; read-out: 5-HT2C Function EMax (%)
// values below are reported Emax
Numbers only; they are read as %.

COc1ccc(-c2cc(Cl)cc3c2NC(CN)CO3)c(C)c1 (racemic); 47
NC[C@H]1CNc2cccc(-c3ccccc3Cl)c2O1; 60
NCC1CNc2cccc(-c3ccc(C(F)(F)F)cc3C(F)(F)F)c2O1 (racemic); 79

Return reported Emax; argument: NCC1CNc2cccc(-c3ccc(Cl)cc3C(F)(F)F)c2O1 (racemic)
56

Return reported Emax; argument: NCC1CNc2cccc(-c3ccccc3C(F)(F)F)c2O1 (racemic)
72

Return reported Emax; argument: CN1CC(CN)Oc2c(-c3ccc(Cl)cc3Cl)cccc21 (racemic)
70

Return reported Emax; argument: NCC1CNc2cccc(-c3ccc(Cl)cc3Cl)c2O1 (racemic)
70

Return reported Emax; argument: Cc1ccc(-c2cc(Cl)cc3c2NC(CN)CO3)c(C(F)(F)F)c1 (racemic)
60

Return reported Emax; argument: COc1ccc(-c2cccc3c2O[C@@H](CN)CN3)c(Cl)c1
78

* * *

- SYSTEM: human 5-HT2C receptor (Homo sapiens, UniProt P28335)
- Construct: expressed in transfected cells; host or cells: CHO (Chinese Hamster Ovary) cells; membrane preparation
- Sequence (P28335 33-458): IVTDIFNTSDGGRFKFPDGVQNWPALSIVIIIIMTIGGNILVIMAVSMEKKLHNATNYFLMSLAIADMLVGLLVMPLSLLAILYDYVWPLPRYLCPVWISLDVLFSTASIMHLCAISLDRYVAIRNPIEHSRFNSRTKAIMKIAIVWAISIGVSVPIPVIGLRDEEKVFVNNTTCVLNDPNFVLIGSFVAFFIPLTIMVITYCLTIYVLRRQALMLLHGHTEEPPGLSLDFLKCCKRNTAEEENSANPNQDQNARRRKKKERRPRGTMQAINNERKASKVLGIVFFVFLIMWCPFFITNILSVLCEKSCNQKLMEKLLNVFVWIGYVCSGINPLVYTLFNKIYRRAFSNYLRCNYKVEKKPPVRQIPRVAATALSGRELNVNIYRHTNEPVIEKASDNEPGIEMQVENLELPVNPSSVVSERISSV
- ASSAY_REMARKS: 5-HT2C receptor binding, [125I]DOI displacement, membranes of transfected CHO cells
- ASSAY_SETUP: read-out: 5-HT2C Binding Ki avg
PARAMETER: log10 Ki (log10 of the value in nM)
Quick note: numbers are log10 of Ki, with nM as the unit.

Return reported log10 Ki; argument: CN1CC(CN)Oc2c(-c3ccccc3F)cccc21 (racemic) [Example 7]
1.29

Return reported log10 Ki; argument: COc1ccc(-c2cccc3c2O[C@@H](CN)CN3)c(Cl)c1 [Example 52]
0.96

Return reported log10 Ki; argument: COc1ccc(-c2cc(F)cc3c2NC(CN)CO3)cc1 (racemic) [Example 61]
2.58

Return reported log10 Ki; argument: NCC1COc2cc(Cl)cc(-c3ccc(Cl)cc3C(F)(F)F)c2N1 (racemic) [Example 37]
2.22

Return reported log10 Ki; argument: NCC1COc2cc(Cl)cc(-c3ccccc3C(F)(F)F)c2N1 (racemic) [Example 25]
1.83

Return reported log10 Ki; argument: NC[C@H]1CNc2cccc(-c3ccccc3F)c2O1 [Example 49]
2.16

* * *

- SYSTEM: human 5-HT2C receptor (Homo sapiens, UniProt P28335)
- Construct: membrane preparation
- ASSAY_REMARKS: 5-HT2C receptor-stimulated calcium mobilization (FLIPR) in CHO cells
- ASSAY_SETUP: calcium mobilization, CHO cells; read-out: 5-HT2C Function EC50
PARAMETER: EC50 (nM)
Numbers only; they are read as nM.

See these solved cases before continuing.
COc1ccc(-c2cccc3c2O[C@@H](CN)CN3)c(C)c1 [Example 50]; 0.72
CN1CC(CN)Oc2c(-c3ccccc3Cl)cccc21 (racemic) [Example 11]; 37
NCC1CNc2cccc(-c3ccc(Cl)cc3Cl)c2O1 (racemic) [Example 15]; 8

Item NCC1CN(CC2CC2)c2cccc(-c3ccccc3Cl)c2O1 (racemic) [Example 12] with human 5-HT2C receptor (Homo sapiens, UniProt P28335) - EC50?
166

Item CN1CC(CN)Oc2c(-c3ccc(Cl)cc3Cl)cccc21 (racemic) [Example 3] with human 5-HT2C receptor (Homo sapiens, UniProt P28335) - EC50?
122
